Biological target: Orexin receptor type 2 (Homo sapiens, UniProt O43614)
Sequence (O43614 whole entry): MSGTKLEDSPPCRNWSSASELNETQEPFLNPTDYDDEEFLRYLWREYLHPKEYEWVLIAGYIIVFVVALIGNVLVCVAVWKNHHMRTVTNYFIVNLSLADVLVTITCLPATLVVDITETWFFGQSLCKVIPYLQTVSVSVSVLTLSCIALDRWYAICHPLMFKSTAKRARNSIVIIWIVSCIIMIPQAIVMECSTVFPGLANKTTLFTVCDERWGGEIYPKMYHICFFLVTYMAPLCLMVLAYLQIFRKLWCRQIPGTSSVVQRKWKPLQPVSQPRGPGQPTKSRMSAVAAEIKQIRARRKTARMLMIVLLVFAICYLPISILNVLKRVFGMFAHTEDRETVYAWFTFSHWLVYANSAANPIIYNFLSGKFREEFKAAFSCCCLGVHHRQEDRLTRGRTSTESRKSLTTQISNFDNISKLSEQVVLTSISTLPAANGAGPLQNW
Assay: Antagonist activity against human orexin 2 receptor expressed in CHO cells assessed as effect in calcium mobilization by FLIPR assay
pKi: −log10 of the molar value.
Where pKi equals or exceeds 7, the correct label is y; where it does not, the label is n.

Determine whether this compound has pKi no lower than 7: Cc1ccc(NC(=O)CSc2nnc(-c3ccoc3C)n2Cc2ccco2)c(C)c1 n

Determine whether this compound has pKi no lower than 7: CC(=O)c1ccc(NC(=O)CSc2nnc(-c3ccoc3C)n2Cc2ccco2)cc1 y

Determine whether this compound has pKi no lower than 7: COc1ccccc1NC(=O)CSc1nnc(-c2ccoc2C)n1Cc1ccco1 n

Determine whether this compound has pKi no lower than 7: CC(=O)c1cccc(NC(=O)CSc2nnc(-c3ccoc3C)n2Cc2ccco2)c1 n

Determine whether this compound has pKi no lower than 7: Cc1cc(C)cc(N(C(=O)CSc2nnc(-c3ccoc3C)n2Cc2ccco2)c2ccccn2)c1 n

Determine whether this compound has pKi no lower than 7: Cc1occc1-c1nnc(SCC(=O)Nc2ccccc2F)n1Cc1ccco1 n

Determine whether this compound has pKi no lower than 7: Cc1cc(C)cc(N(C(=O)CSc2nnc(-c3ccoc3C)n2Cc2ccco2)c2cccnc2)c1 n

Determine whether this compound has pKi no lower than 7: COc1ccc(C)cc1NC(=O)CSc1nnc(-c2ccoc2C)n1Cc1ccco1 y

Determine whether this compound has pKi no lower than 7: Cc1ccccc1NC(=O)CSc1nnc(-c2ccoc2C)n1Cc1ccco1 n

Determine whether this compound has pKi no lower than 7: Cc1occc1-c1nnc(SCC(=O)Nc2cccc(-c3ccc4c(c3)OCO4)c2)n1Cc1ccco1 n

Determine whether this compound has pKi no lower than 7: Cc1cc(C)cc(NC(=O)CSc2nnc(-c3ccoc3C)n2Cc2ccco2)c1 y

Determine whether this compound has pKi no lower than 7: Cc1occc1-c1nnc(SCC(N)=O)n1Cc1ccco1 n

Determine whether this compound has pKi no lower than 7: Cc1cccc(NC(=O)CSc2nnc(-c3ccoc3C)n2Cc2ccco2)c1 y

Determine whether this compound has pKi no lower than 7: Cc1nnc(NC(=O)CSc2nnc(-c3ccoc3C)n2Cc2ccco2)s1 n

Determine whether this compound has pKi no lower than 7: Cc1occc1-c1nnc(SCC(=O)Nc2ccccc2)n1Cc1ccco1 n

Determine whether this compound has pKi no lower than 7: Cc1ccc(NC(=O)CSc2nnc(-c3ccoc3C)n2Cc2ccco2)cc1 y

Determine whether this compound has pKi no lower than 7: Cc1occc1-c1nnc(SCC(=O)Nc2cccc(F)c2)n1Cc1ccco1 n

Determine whether this compound has pKi no lower than 7: Cc1occc1-c1nnc(SCC(=O)Nc2ccc(F)c(Cl)c2)n1Cc1ccco1 y

Determine whether this compound has pKi no lower than 7: Cc1cccc(C)c1NC(=O)CSc1nnc(-c2ccoc2C)n1Cc1ccco1 n

Determine whether this compound has pKi no lower than 7: Cc1nc(C(=O)N2CCCC[C@H]2CNC(=O)c2cccc3occc23)c(-c2ccc(F)cc2)s1 y

* * *

Target: Cytochrome P450 3A4 (Homo sapiens, UniProt P08684)
Sequence (P08684 whole entry): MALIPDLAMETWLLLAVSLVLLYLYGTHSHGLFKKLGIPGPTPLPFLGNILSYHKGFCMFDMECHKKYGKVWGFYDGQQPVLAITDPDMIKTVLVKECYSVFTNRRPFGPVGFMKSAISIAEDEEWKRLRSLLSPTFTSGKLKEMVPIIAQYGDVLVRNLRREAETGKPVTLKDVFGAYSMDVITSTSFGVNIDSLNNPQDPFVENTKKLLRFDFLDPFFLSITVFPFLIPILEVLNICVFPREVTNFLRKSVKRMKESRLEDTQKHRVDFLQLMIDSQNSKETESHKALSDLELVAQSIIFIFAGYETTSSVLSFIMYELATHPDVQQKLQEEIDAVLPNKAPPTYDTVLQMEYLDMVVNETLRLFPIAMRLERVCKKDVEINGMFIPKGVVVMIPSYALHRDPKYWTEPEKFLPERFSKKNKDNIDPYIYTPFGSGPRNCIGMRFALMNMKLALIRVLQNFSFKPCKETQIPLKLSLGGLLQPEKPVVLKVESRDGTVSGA
Experiment: Inhibition of CYP3A4 using DEF substrate by CYPEX bactosome P450 inhibition assay
Assay type: ADME
Measurement name: IC50 (nM)
Answer format: numeric, nM implied, no suffix.

Please give the measured IC50 for this molecule: Cc1cc(C)cc(NC(=O)CSc2nnc(-c3ccoc3C)n2Cc2ccco2)c1 2000

* * *

Molecular target: Orexin/Hypocretin receptor type 1 (Homo sapiens, UniProt O43613)
Sequence (O43613 whole entry): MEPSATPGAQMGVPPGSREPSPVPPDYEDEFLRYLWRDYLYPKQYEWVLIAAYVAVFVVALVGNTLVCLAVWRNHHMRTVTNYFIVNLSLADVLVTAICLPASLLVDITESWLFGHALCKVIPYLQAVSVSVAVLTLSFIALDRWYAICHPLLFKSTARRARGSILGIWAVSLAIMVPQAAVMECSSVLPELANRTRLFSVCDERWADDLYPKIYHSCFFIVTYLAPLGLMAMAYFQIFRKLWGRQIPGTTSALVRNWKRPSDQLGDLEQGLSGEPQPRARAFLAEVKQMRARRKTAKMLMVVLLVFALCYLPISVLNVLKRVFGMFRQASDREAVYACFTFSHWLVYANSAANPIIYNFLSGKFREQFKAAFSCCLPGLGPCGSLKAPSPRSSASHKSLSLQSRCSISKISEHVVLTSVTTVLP
Experiment: Antagonist activity against human orexin 1 receptor expressed in CHO cells assessed as effect in calcium mobilization by FLIPR assay
Measurement name: Ki

Please give the measured Ki for this compound: Cc1cc(C)cc(NC(=O)CSc2nnc(-c3ccoc3C)n2Cc2ccco2)c1 0.794 µM

Please give the measured Ki for this compound: COc1ccc(C)cc1NC(=O)CSc1nnc(-c2ccoc2C)n1Cc1ccco1 2.51 µM

Please give the measured Ki for this compound: Cc1occc1-c1nnc(SCC(=O)Nc2cccc(F)c2)n1Cc1ccco1 > 15.8 µM

Please give the measured Ki for this compound: COc1ccc(NC(=O)CSc2nnc(-c3ccoc3C)n2Cc2ccco2)cc1 > 15.8 µM

Please give the measured Ki for this compound: Cc1nnc(NC(=O)CSc2nnc(-c3ccoc3C)n2Cc2ccco2)s1 > 15.8 µM

Please give the measured Ki for this compound: Cc1occc1-c1nnc(SCC(=O)Nc2ccccc2F)n1Cc1ccco1 > 15.8 µM

Please give the measured Ki for this compound: Cc1occc1-c1nnc(SCC(=O)NN2CCc3ccccc32)n1Cc1ccco1 > 15.8 µM

Please give the measured Ki for this compound: Cc1occc1-c1nnc(SCC(=O)Nc2ccc(F)c(Cl)c2)n1Cc1ccco1 1 µM

Please give the measured Ki for this compound: Cc1occc1-c1nnc(SCC(=O)NCCc2ccccc2)n1Cc1ccco1 > 15.8 µM

Please give the measured Ki for this compound: Cc1ccc(C)c(NC(=O)CSc2nnc(-c3ccoc3C)n2Cc2ccco2)c1 > 15.8 µM

Please give the measured Ki for this compound: Cc1occc1-c1nnc(SCC(=O)Nc2ccc(N(C)C)cc2)n1Cc1ccco1 0.794 µM

Please give the measured Ki for this compound: Cc1cc(C)cc(N(C(=O)CSc2nnc(-c3ccoc3C)n2Cc2ccco2)c2ccccn2)c1 > 15.8 µM

Please give the measured Ki for this compound: Cc1occc1-c1nnc(SCC(=O)Nc2nccs2)n1Cc1ccco1 > 15.8 µM
